Numbers sourced from patent US8883782B2.

Tested on: Aβ40 in conditioned medium of cells stably expressing Amyloid Precursor Protein (APP)
assay overview: In vitro BACE cell-based assay (Aβ40 in conditioned medium, sandwich ELISA)
run parameters: Homo sapiens, HEK293, average IC50; read-out: HEK cell assay
recorded endpoint: IC50

smiles_record=CCn1cc(-c2cccc(-c3ccc4c(c3)[C@@]3(COC(N)=N3)c3cc(C5=CCOCC5)ncc3O4)c2)cn1 endpoint_value="326 nM"
smiles_record=CC1(COc2cc(F)c3c(c2)[C@]2(COC(N)=N2)c2cc(-c4cnccn4)ccc2O3)COC1 endpoint_value="12 nM"
smiles_record=NC1=N[C@@]2(CO1)c1cc(-c3cccnc3F)ccc1Oc1cc(OC(F)(F)F)c(-c3ccnc(F)c3)cc12 endpoint_value="1090 nM"
smiles_record=COc1cc(F)c2c(c1)[C@]1(COC(N)=N1)c1cc(-c3cncc(C#CC(C)(C)OC)c3)ccc1O2 endpoint_value="4300 nM"
smiles_record=CC1(C#Cc2cncc(-c3ccc4c(c3)[C@@]3(COC(N)=N3)c3cc(Cl)ncc3O4)c2)COC1 endpoint_value="≥ 10000 nM"
smiles_record=NC1=N[C@@]2(CO1)c1cc(-c3cncc(F)c3)ccc1Oc1c(F)cc(N3CCOCC3)cc12 endpoint_value="6.4 nM"
smiles_record=NC1=N[C@@]2(CO1)c1cc(OCc3ccccn3)ccc1Oc1ncc(C3=CCOCC3)cc12 endpoint_value="629 nM"
smiles_record=Cc1ccc(-c2ccc3c(c2)[C@@]2(COC(N)=N2)c2cc(C4=CCOCC4)cnc2O3)o1 endpoint_value="158 nM"
smiles_record=CC1(C)CN(c2cnc3c(c2)[C@]2(COC(N)=N2)c2cc(C#CC4CC4)ccc2O3)CCO1 endpoint_value="64.1 nM"

---

System: Aβ40 in conditioned medium of cells stably expressing Amyloid Precursor Protein (APP)
assay overview: In vitro BACE cell-based assay (Aβ40 in conditioned medium, sandwich ELISA)
run parameters: Homo sapiens, HEK293, average IC50; read-out: HEK cell assay
recorded endpoint: IC50

molecule=NC1=N[C@]2(CO1)c1cc(-c3cccnc3F)ccc1Oc1cc(OC(F)(F)F)c(Br)cc12 endpoint_value="≥ 10 µM"
molecule="COCC1SC(N)=N[C@@]12c1cc(-c3cccnc3F)ccc1Oc1c(F)cc(OC)cc12 (stereo partly drawn)" endpoint_value="> 10 µM"
molecule=COc1cc2c(c(F)c1F)Oc1ccc(Br)cc1[C@@]21COC(N)=N1 endpoint_value="≥ 10 µM"

---

List of pIC50 values.
system: Beta Secretase enzyme (BACE) (Homo sapiens)
Sequence (P56817 46-501, species assumed): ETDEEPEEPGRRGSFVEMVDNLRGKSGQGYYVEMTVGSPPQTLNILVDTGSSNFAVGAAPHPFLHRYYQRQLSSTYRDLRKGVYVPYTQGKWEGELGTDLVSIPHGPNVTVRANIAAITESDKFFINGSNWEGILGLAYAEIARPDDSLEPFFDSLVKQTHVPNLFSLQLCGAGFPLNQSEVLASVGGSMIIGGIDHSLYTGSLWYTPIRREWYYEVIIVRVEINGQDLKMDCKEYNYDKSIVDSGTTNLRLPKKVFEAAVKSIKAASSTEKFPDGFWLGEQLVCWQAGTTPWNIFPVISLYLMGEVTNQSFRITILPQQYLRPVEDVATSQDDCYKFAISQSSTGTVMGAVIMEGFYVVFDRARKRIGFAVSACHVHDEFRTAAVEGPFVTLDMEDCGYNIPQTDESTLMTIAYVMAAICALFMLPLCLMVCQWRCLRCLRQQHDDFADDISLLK
assay overview: In vitro enzymatic BACE FRET (fluorescence resonance energy transfer) assay
Format: biochemical
run parameters: average IC50, enzyme assay; read-out: BACE 1 FRET assay
Description: In Vitro Enzymatic Bace Fret (Fluorescence Resonance Energy Transfer) Assay (Enzyme Assay Data in the Example Table I) The assay buffer used in this screen is 0.05 M acetate, pH 4.2, 10% DMSO final, 100 uM genapol (which is a nonionic detergent, below its Critical Micelle Concentration). […] The FRET assay is terminated with by addition of Tris buffer, which raises the pH to neutrality, and the fluorescence is determined. […]
pIC50: −log10 of the molar value.
recorded endpoint: pIC50

smiles_record=Cn1cc(-c2cc(F)c3c(c2)[C@]2(COC(N)=N2)c2cc(-c4cncc(C#N)c4)ccc2O3)cn1 recorded_endpoint=pIC50 endpoint_value=8.80
smiles_record=CC(C)(C#N)COc1cc(F)c2c(c1)[C@]1(COC(N)=N1)c1cc(-c3cncc(C#N)c3)ccc1O2 recorded_endpoint=pIC50 endpoint_value=9.10
smiles_record=NC1=N[C@@]2(CO1)c1cc(-c3cccnc3F)ccc1Oc1c(F)cc(N3CCC4(CC3)COC4)cc12 recorded_endpoint=pIC50 endpoint_value=9.10
